Consider the following compounds; for each one, report its pIC50.
# Tested on: 292921-168-R-J2-PDC complex spheroid growth;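 also: spheroids exposed to compounds for seven days after three days of growth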
# ASSAY INFO: Anticancer human tumor 292921-168-R-J2-PDC patient-derived pancreatic carcinoma cell line growth inhibition [AhR]
# DETAILS: curve of first compound; second compound 10 µM
pIC50: −log10 of the molar value.

Field: example entries. Status: answers known.
>>> result("O=C(C=Cc1cccc(S(=O)(=O)Nc2ccccc2)c1)NO + Cc1cncc(-c2nc(NCCc3c[nH]c4ccccc34)c3ncn(C(C)C)c3n2)c1")
"> 7.50"
>>> result("CCc1c2c(nc3ccc(O)cc13)-c1cc3c(c(=O)n1C2)COC(=O)[C@]3(O)CC + Cc1cncc(-c2nc(NCCc3c[nH]c4ccccc34)c3ncn(C(C)C)c3n2)c1")
"> 9.02"
>>> result("CC1COCCN1c1cc(-c2ccnn2C)c2ccnc(-c3ccn[nH]3)c2n1 (stereo unspecified) + Cc1cncc(-c2nc(NCCc3c[nH]c4ccccc34)c3ncn(C(C)C)c3n2)c1")
"> 8.50"
>>> result("CC1(C)CCC(CN2CCN(c3ccc(C(=O)NS(=O)(=O)c4ccc(NCC5CCOCC5)c([N+](=O)[O-])c4)c(Oc4cnc5[nH]ccc5c4)c3)CC2)=C(c2ccc(Cl)cc2)C1 + CC(CO)NC(=O)c1cc(-c2ccc(Cl)cc2)nn(-c2cnn(C)c2)c1=O")
5.37
>>> result("Nc1ccn(C2OC(CO)C(O)C2(F)F)c(=O)n1 (stereo unspecified) + Cc1ccccc1N=Nc1ccc(NC(=O)c2ccnn2C)c(C)c1")
"> 7.50"

Query string: Tell me its pIC50 given Nc1ncn(C2CC(O)C(CO)O2)c(=O)n1 (stereo unspecified) + Cc1cncc(-c2nc(NCCc3c[nH]c4ccccc34)c3ncn(C(C)C)c3n2)c1 as the entry.
Result string: 8.01
